Molecular target: Apelin receptor (Homo sapiens) (UniProt P35414)
Assay: potency against CXCR6 with APJ panel – cell-based, beta-arrestin, DiscoveRx, uHTS hits, dose response (AID 624129)
Conditions: CXCR6 beta-arrestin (DiscoveRx) antagonist cell assay, APJ, dose range 1, mean IC50 across replicates
pIC50: −log10 of the molar value.
MEASURE: pIC50

INSERT INTO assay_data (molecule, rel, value) VALUES
  ('O=C1N[C@H](Cc2ccccc2)COC(=O)[C@H](Cc2ccc(F)cc2)CC/C=C/C[C@H]1CC(=O)N(CCO)Cc1ccccc1', '=', 5.33),
  ('O=C1C=CC2(O[C@H](c3ccccc3)[C@@H](c3ccccc3)O2)[C@H](Sc2ccccc2O)C1', '=', 5.52),
  ('Cc1cccc(C(=O)Nc2ccc(C(=O)/C=C/c3cccnc3)cc2)c1', '=', 5.02),
  ('O=[N+]([O-])/C=C/c1c(Cl)cccc1Cl', '=', 4.84),
  ('O=[N+]([O-])c1ccc(S(=O)Cc2ccccc2)c([N+](=O)[O-])c1 (stereo not given)', '<', 4.10),
  ('COc1ccc(C(=O)N/N=C(\C)c2ccccn2)cc1OC', '=', 5.62),
  ('O=C(Nc1nnc(SCc2ccc(F)cc2)s1)c1ccccn1', '=', 5.44),
  ('CC(Oc1ccc(F)cc1)C(=O)Nc1nc(-c2ccccn2)cs1 (stereo not given)', '=', 5.03),
  ('Oc1cccc2ccc(/C=C/c3cccs3)nc12', '=', 5.30),
  ('COc1ccc(OC)c2sc(N(CCCN(C)C)C(=O)CCS(=O)(=O)c3ccccc3)nc12', '=', 4.71);

* * *

Biological target: UniProt O00574
Sequence (O00574 whole entry, looked up): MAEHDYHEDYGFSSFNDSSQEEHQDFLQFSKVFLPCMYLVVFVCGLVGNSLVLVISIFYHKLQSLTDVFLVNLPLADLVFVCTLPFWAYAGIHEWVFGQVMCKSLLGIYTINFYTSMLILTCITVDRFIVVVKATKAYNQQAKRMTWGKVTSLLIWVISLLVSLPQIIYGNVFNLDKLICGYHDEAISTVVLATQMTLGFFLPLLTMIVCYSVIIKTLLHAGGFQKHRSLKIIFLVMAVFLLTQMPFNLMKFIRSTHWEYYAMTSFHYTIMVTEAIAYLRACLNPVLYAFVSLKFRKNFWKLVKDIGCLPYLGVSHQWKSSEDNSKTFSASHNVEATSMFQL
Assay: potency against CXCR6 with APJ panel – cell-based, beta-arrestin, DiscoveRx, uHTS hits, dose response (AID 624129)
Conditions: CXCR6 beta-arrestin (DiscoveRx) antagonist cell assay, CXCR6, run 2, dose range 1, at 79 µM (top of the series)
MEASURE: inhibition (%)

INSERT INTO assay_data (compound, target_or_system, measure, value) VALUES
  ('COC(=O)c1cc([N+](=O)[O-])c(-n2cncn2)c([N+](=O)[O-])c1', 'UniProt O00574', 'inhibition', 113),
  ('CCC(=O)OCCNc1cc(SCCC(=O)OC)c2nonc2c1[N+](=O)[O-]', 'UniProt O00574', 'inhibition', 108),
  ('O=C1c2cccc3c([N+](=O)[O-])ccc(c23)C(=O)N1c1ccc(Cl)cn1', 'UniProt O00574', 'inhibition', 92.1),
  ('COc1cccc(C(=O)NC(=S)N2CCN(c3ccc(C(F)(F)F)cc3[N+](=O)[O-])CC2)c1', 'UniProt O00574', 'inhibition', 74.3),
  ('COc1cc(C2C(C#N)=C(N)Oc3n[nH]c(-c4cccnc4)c32)cc(Br)c1O (stereo not given)', 'UniProt O00574', 'inhibition', 86.6),
  ('CS(=O)(=O)c1ccc(C(=O)OCC(=O)N2CCN(CCC3CCCCC3)CC2)cc1[N+](=O)[O-]', 'UniProt O00574', 'inhibition', 111),
  ('O=C(C=Cc1ccccn1)c1ccccc1O', 'UniProt O00574', 'inhibition', 108),
  ('COc1cc(/C=C/C(=O)c2ccc(C)c([N+](=O)[O-])c2)cc(OC)c1O', 'UniProt O00574', 'inhibition', 75.1),
  ('COc1ccc2nc(-n3c(O)c(C4=c5ccccc5=NC4=O)[nH]c3=S)sc2c1', 'UniProt O00574', 'inhibition', 109),
  ('CN(C)CC1CC/C(=C\c2ccc(O)cc2)C1=O (stereo not given)', 'UniProt O00574', 'inhibition', 111),
  ('Cc1ccc(CS(=O)(=O)c2ncc(Cl)c(C(=O)Nc3ccc(OC(F)F)cc3)n2)cc1', 'UniProt O00574', 'inhibition', 105),
  ('N#C/C(=C/c1ccc(-c2ccc([N+](=O)[O-])cc2)o1)C(=O)Nc1nc(-c2cccs2)cs1', 'UniProt O00574', 'inhibition', 90.2),
  ('CC(=O)NS(=O)(=O)c1ccc(Nc2ccc([N+](=O)[O-])c3nonc23)cc1', 'UniProt O00574', 'inhibition', 85.9),
  ('COc1cc(/C=C2\SC(=O)N(c3ccc(Cl)cc3)C2=O)cc([N+](=O)[O-])c1O', 'UniProt O00574', 'inhibition', 88.6),
  ('CN(C)CCCN(C(=O)CCS(=O)(=O)c1ccccc1)c1nc2cc3c(cc2s1)OCO3', 'UniProt O00574', 'inhibition', 110),
  ('COC(=O)C1=C(C(=O)OC)C2OC1c1cc3ccccc3cc12', 'UniProt O00574', 'inhibition', 112),
  ('COc1ccc(C(=O)NC(=S)Nc2ccc([N+](=O)[O-])cc2C)cc1OC', 'UniProt O00574', 'inhibition', 100),
  ('CCOc1cc(/C=C2\C(=O)N(c3cccc(C(F)(F)F)c3)C(=O)c3ccccc32)ccc1O', 'UniProt O00574', 'inhibition', 81),
  ('C=CCN(CC=C)C(=S)NC(=O)c1ccc(C)c(Br)c1', 'UniProt O00574', 'inhibition', 65.4),
  ('Cc1cc(C)nc(S/C=C/C(=O)c2ccccc2)n1', 'UniProt O00574', 'inhibition', 107);

* * *

Biological target: Apelin receptor (Homo sapiens) (UniProt P35414)
Test: potency against CXCR6 with APJ panel – cell-based, beta-arrestin, DiscoveRx, uHTS hits, dose response (AID 624129)
Details: CXCR6 beta-arrestin (DiscoveRx) antagonist cell assay, APJ, run 2, dose range 1
# reported IC50; entries follow
MEASURE: IC50

INSERT INTO results (compound, value) VALUES
  ('CCN1/C(=C\C=C2\C(=O)N(c3ccccc3)C(=S)N2C)Sc2ccccc21', '13.9 µM'),
  ('CCC1CCCCN1S(=O)(=O)c1ccc(NC(=O)c2nc(S(C)(=O)=O)ncc2Cl)cc1 (configuration not stated)', '7.18 µM'),
  ('FC(F)(F)c1cnc(NNC(=S)Nc2ccccc2Cl)c(Cl)c1', '> 80 µM'),
  ('COc1ccc([N+](=O)[O-])c(S(=O)(=O)c2ccccc2)n1', '> 80 µM'),
  ('Cc1ccc(-c2oc3ccccc3c(=O)c2O)cc1', '12.2 µM'),
  ('CCN(c1ccccc1)S(=O)(=O)c1ccc(NC(=O)c2nc(S(C)(=O)=O)ncc2Cl)cc1', '15.3 µM'),
  ('Cc1nc2c(-c3ccc(Cl)cc3)c(C)[nH]n2c(=O)c1Cc1ccccc1', '> 80 µM'),
  ('Oc1cccc2ccc(/C=C/c3cccs3)nc12', '> 80 µM'),
  ('N=C1S/C(=C\c2ccco2)C(=O)N1c1nccs1', '12.4 µM'),
  ('Cc1cccc(C)c1NC(=O)c1nc(S(=O)(=O)Cc2ccccc2)ncc1Cl', '> 80 µM'),
  ('CC(C)N=C1CCCC1C(=S)SSC(=S)C1CCCC1=NC(C)C (configuration not stated)', '21.8 µM'),
  ('Cc1[nH]n(-c2ccccc2)c(=S)c1C=NCCCN=Cc1c(C)[nH]n(-c2ccccc2)c1=S', '3.21 µM'),
  ('S=C(N/N=C/c1ccccc1)N1CCOCC1', '7.06 µM'),
  ('O=C(Nc1nc(-c2ccccn2)cs1)c1cc(Cl)ccc1[N+](=O)[O-]', '> 80 µM'),
  ('Cc1cc(C)c2ccc(N)nc2c1O', '> 80 µM'),
  ('COc1ccccc1C(=O)NNC(=S)NC(=O)c1cccs1', '13.8 µM'),
  ('Cc1ccc(C(=O)/C=C/C(=O)c2ccc(C)cc2)cc1', '> 80 µM'),
  ('O=C1c2sc3nc4ccccc4n3c2C(=O)N1c1ccccc1Cl', '16.9 µM'),
  ('CNc1ccc2oc(C[C@H]3O[C@@]4(CC[C@H]3C)O[C@H]([C@H](C)C(=O)c3ccc[nH]3)[C@H](C)C[C@H]4C)nc2c1C(=O)O', '12.4 µM'),
  ('Cc1c(Nc2cc(Cl)c3nonc3c2[N+](=O)[O-])c(=O)n(-c2ccccc2)n1C', '4.09 µM'),
  ('C=C1CC(COc2cc(=O)oc3ccccc23)(c2ccccc2)OC1=O (configuration not stated)', '7.31 µM'),
  ('C/C(=N\NC(=O)c1ccc(F)cc1)c1ccccn1', '1.4 µM');
